# Assay: Lipophilicity, logP of compound
# Type: physicochemical
# Measurement parameters: octanol/water
Recorded metric: logP
Could you respond with only the numeric value?

Returns the measured logP for the input molecule. Input: "Cn1nc(C(F)(F)F)cc1-c1ccc(OCc2ccc(Cl)cc2)c(-c2ccc(Cl)c(C(F)(F)F)c2)c1O" 8.4
